# credit: ChEMBL document CHEMBL3576811

Assay: AUC in Sprague-Dawley rat at 10 mg/kg, po
Format: ADME, organism-based
Details: in vivo
measurement_name: AUC (µM·h)
Provide the reading as a plain figure in µM·h.

// AUC value for C[C@](O)(CO)c1ccc(-c2ncc(S(=O)(=O)c3ccc(N)nc3)s2)c(Cl)c1 : 568

###

Assay: Cmax in Sprague-Dawley rat at 10 mg/kg, po after 4 hrs
Type: ADME, organism-based
Parameters: dose 10 mg/kg, route oral
Conditions: in vivo
measurement_name: Cmax

Summary for this compound, C[C@](O)(CO)c1ccc(-c2ncc(S(=O)(=O)c3ccc(N)nc3)s2)c(Cl)c1 : Cmax is 57.6 µM

###

Assay: Volume of distribution at steady state in Sprague-Dawley rat at 2 mg/kg, iv
Type: ADME, organism-based
Settings: in vivo, read-out: Vdss
measurement_name: Vd (L/kg)
State just the number; it will be interpreted in L/kg.

Noted for C[C@](O)(CO)c1ccc(-c2ncc(S(=O)(=O)c3ccc(N)nc3)s2)c(Cl)c1 : its Vd reads 0.18
